- EXPERIMENT_NOTES: Intrinsic Clearance in human liver microsome
- Type: ADME
- TEST_CONDITIONS: liver microsomes, read-out: CLH
QUANTITY_MEASURED: microsomal CLint (µL/min/mg)

>>> numeric_result("Cc1nn2cc1CN(C)CCOCCNC(=O)c1nn(CC(C)(C)O)c3ccc(cc13)Nc1nccc-2n1")
52

A = Cc1nn2cc1CN(C)CCOCCNC(=O)c1nn(C)c3ccc(cc13)Nc1nccc-2n1
B = Cc1nn2cc1CN(C)CCCCCNC(=O)c1nn(C)c3ccc(cc13)Nc1nccc-2n1
In: Please let me know which one, A or B , has a lower measured microsomal CLint value. Which one? Tell me its label.
Out: A

---

- EXPERIMENT_NOTES: Intrinsic Clearance in human liver microsome
- Type: ADME
- TEST_CONDITIONS: liver microsomes, read-out: CLH
QUANTITY_MEASURED: microsomal CLint (µL/min/mg)

Example molecules with recorded microsomal CLint:
>>> numeric_result("Cc1nn2cc1CN(C)CCOCCNC(=O)c1nn(C[C@@H](C)O)c3ccc(cc13)Nc1nccc-2n1")
39
>>> numeric_result("Cc1nn2cc1CN(C)CCOCCNC(=O)c1nn(C[C@H](C)O)c3ccc(cc13)Nc1nccc-2n1")
34

P = CC(=O)OC(C)(C)Cn1nc2c3cc(ccc31)Nc1nccc(n1)-n1cc(c(C)n1)CN(C)CCOCCNC2=O
Q = Cc1nn2cc1CN(C)CCOCCNC(=O)c1nn(C3COC3)c3ccc(cc13)Nc1nccc-2n1
In: Please let me know which one, P or Q , has a lower measured microsomal CLint value. Which one? Tell me its label.
Out: Q

---

- EXPERIMENT_NOTES: Clearance in Beagle Dog at 1 umol/kg, iv
- Type: ADME, Canis lupus familiaris
- TEST_CONDITIONS: in vivo, dose 1 µmol/kg
QUANTITY_MEASURED: clearance (mL/min/kg)
Unit mL/min/kg implied. Number only.

In: What does the record list as clearance for Cc1nn2cc1CN(C)CCOCCNC(=O)c1nn(CCO)c3ccc(cc13)Nc1nccc-2n1 ?
Out: 9

---

- EXPERIMENT_NOTES: Hydrolytic stability of the compound at pH 7.4 assessed as half life
- Assay type: physicochemical
- TEST_CONDITIONS: buffer
QUANTITY_MEASURED: half-life (h)

a = CC(=O)OCCn1nc2c3cc(ccc31)Nc1nccc(n1)-n1cc(c(C)n1)CN(C)CCOCCNC2=O
b = CC(=O)OC(C)(C)Cn1nc2c3cc(ccc31)Nc1nccc(n1)-n1cc(c(C)n1)CN(C)CCOCCNC2=O
c = Cc1nn2cc1CN(C)CCOCCNC(=O)c1nn(CCOC(=O)C(C)(C)C)c3ccc(cc13)Nc1nccc-2n1
In: Sort low-to-high on half-life, please. Answer format: the labels, in the requested order.
Out: a, c, b

---

- EXPERIMENT_NOTES: Clearance in Han-Wistar rat at 1 umol/kg, iv
- Type: ADME
- TEST_CONDITIONS: in vivo, dose 1 µmol/kg
QUANTITY_MEASURED: clearance (mL/min/kg)

a = Cc1nn2cc1CN(C)CCOCCNC(=O)c1nn(CCO)c3ccc(cc13)Nc1nccc-2n1
b = Cc1nn2cc1CN(C)CCOCCNC(=O)c1nn(C)c3ccc(cc13)Nc1nccc-2n1
In: Please let me know which one, a or b , has a lower measured clearance value. Which one? Tell me its label.
Out: b
(b: 16 mL/min/kg, a: 33 mL/min/kg)

---

- EXPERIMENT_NOTES: Hydrolytic stability of the compound at pH 10 assessed as half life
- Format: physicochemical
- TEST_CONDITIONS: buffer
QUANTITY_MEASURED: half-life (h)

a = Cc1nn2cc1CN(C)CCOCCNC(=O)c1nn(CCOC(=O)C(C)(C)C)c3ccc(cc13)Nc1nccc-2n1
b = CC(=O)OC(C)(C)Cn1nc2c3cc(ccc31)Nc1nccc(n1)-n1cc(c(C)n1)CN(C)CCOCCNC2=O
In: Which of the two items, a and b , has the greater recorded half-life? Which one? Tell me its label.
Out: a
(a: 5 h, b: 2.9 h)

---

- EXPERIMENT_NOTES: Intrinsic clearance in rat hepatocytes assessed per million cells
- Type: ADME, cell-based, Hepatocyte
- TEST_CONDITIONS: read-out: CLH
QUANTITY_MEASURED: hepatocyte CLint (µL/min/1e6 cells)

>>> numeric_result("CC(=O)OCCn1nc2c3cc(ccc31)Nc1nccc(n1)-n1cc(c(C)n1)CN(C)CCOCCNC2=O")
198

I = Cc1nn2cc1CN(C)CCOCCNC(=O)c1nn(CCOC(=O)C(C)(C)C)c3ccc(cc13)Nc1nccc-2n1
II = Cc1nn2cc1CN(C)N1CCC(CCNC(=O)c3nn(C)c4ccc(cc34)Nc3nccc-2n3)CC1
III = Cc1nn2cc1CN(C)CCOCCNC(=O)c1nn(C3COC3)c3ccc(cc13)Nc1nccc-2n1
In: Order these by hepatocyte CLint, descending, and give the full ranking. Answer format: the labels, in the requested order.
Out: I, II, III
(I: 163 µL/min/1e6 cells, II: 15 µL/min/1e6 cells, III: 4.6 µL/min/1e6 cells)

---

- EXPERIMENT_NOTES: Hydrolytic stability of the compound at pH 1 assessed as half life
- Format: physicochemical
- TEST_CONDITIONS: buffer
QUANTITY_MEASURED: half-life (h)

A = CC(=O)OC(C)(C)Cn1nc2c3cc(ccc31)Nc1nccc(n1)-n1cc(c(C)n1)CN(C)CCOCCNC2=O
B = CC(=O)OCCn1nc2c3cc(ccc31)Nc1nccc(n1)-n1cc(c(C)n1)CN(C)CCOCCNC2=O
In: Which of the two items, A and B , has the greater recorded half-life? Which one? Tell me its label.
Out: A

---

- EXPERIMENT_NOTES: Intrinsic Clearance in human liver microsome
- Format: ADME
- TEST_CONDITIONS: liver microsomes, read-out: CLH
QUANTITY_MEASURED: microsomal CLint (µL/min/mg)

>>> numeric_result("Cc1nn2cc1CN(C)N1CC(CNC(=O)c3nn(C)c4ccc(cc34)Nc3nccc-2n3)C1")
18
>>> numeric_result("Cc1nn2cc1CN(C)N1CCC(O)(CCNC(=O)c3nn(C)c4ccc(cc34)Nc3nccc-2n3)CC1")
28

I = Cc1nn2cc1CN(C)CCOCCNC(=O)c1nn(CCO)c3ccc(cc13)Nc1nccc-2n1
II = Cc1nn2cc1CN(C)N1CCC(CCNC(=O)c3nn(C)c4ccc(cc34)Nc3nccc-2n3)CC1
In: Which of the two items, I and II , has the greater recorded microsomal CLint? Which one? Tell me its label.
Out: II

---

- EXPERIMENT_NOTES: Lipophilicity, logD of the compound in buffer/octanol volume ratio of 100:1 at pH 7.4 by shake flask method
- Format: physicochemical
QUANTITY_MEASURED: logD

>>> numeric_result("Cc1nn2cc1CN(C)CCOCCNC(=O)c1nn(CCOC(=O)C(C)(C)C)c3ccc(cc13)Nc1nccc-2n1")
3.1
>>> numeric_result("Cc1nn2cc1CN(C)CCOCCNC(=O)c1nn(C[C@H](C)O)c3ccc(cc13)Nc1nccc-2n1")
1.3
>>> numeric_result("Cc1nn2cc1CN(C)CCOCCNC(=O)c1nn(C3COC3)c3ccc(cc13)Nc1nccc-2n1")
1.7
>>> numeric_result("CC(=O)OC(C)(C)Cn1nc2c3cc(ccc31)Nc1nccc(n1)-n1cc(c(C)n1)CN(C)CCOCCNC2=O")
2.5
>>> numeric_result("Cc1nn2cc1CN(C)CCOCCNC(=O)c1nn(C)c3ccc(cc13)Nc1nccc-2n1")
1.8

a = Cc1nn2cc1CN(C)CCOCCNC(=O)c1nn(CC(C)(C)O)c3ccc(cc13)Nc1nccc-2n1
b = Cc1nn2cc1CN(C)N1CCC(CCNC(=O)c3nn(C)c4ccc(cc34)Nc3nccc-2n3)CC1
In: Which of the two items, a and b , has the greater recorded logD? Which one? Tell me its label.
Out: b

---

- EXPERIMENT_NOTES: Volume of distribution at steady state in Beagle Dog at 1 umol/kg, iv
- Assay type: ADME, Canis lupus familiaris
- TEST_CONDITIONS: in vivo, dose 1 µmol/kg, read-out: Vdss
QUANTITY_MEASURED: Vd (L/kg)
Unit L/kg implied. Number only.

In: What does the record list as Vd for Cc1nn2cc1CN(C)CCOCCNC(=O)c1nn(CCO)c3ccc(cc13)Nc1nccc-2n1 ?
Out: 1.9

---

- EXPERIMENT_NOTES: Intrinsic clearance in rat hepatocytes assessed per million cells
- Assay type: ADME, cell-based, Hepatocyte
- TEST_CONDITIONS: read-out: CLH
QUANTITY_MEASURED: hepatocyte CLint (µL/min/1e6 cells)

>>> numeric_result("Cc1nn2cc1CN(C)N1CC(CNC(=O)c3nn(C)c4ccc(cc34)Nc3nccc-2n3)C1")
27
>>> numeric_result("Cc1nn2cc1CN(C)CCOCCNC(=O)c1nn(C[C@@H](C)O)c3ccc(cc13)Nc1nccc-2n1")
4.4

P = Cc1nn2cc1CN(C)CCOCCNC(=O)c1nn(CC(C)(C)O)c3ccc(cc13)Nc1nccc-2n1
Q = CC(=O)OC(C)(C)Cn1nc2c3cc(ccc31)Nc1nccc(n1)-n1cc(c(C)n1)CN(C)CCOCCNC2=O
R = Cc1nn2cc1CN(C)CCCCCNC(=O)c1nn(C)c3ccc(cc13)Nc1nccc-2n1
S = Cc1nn2cc1CN(C)N1CCC(O)(CCNC(=O)c3nn(C)c4ccc(cc34)Nc3nccc-2n3)CC1
In: Order these by hepatocyte CLint, descending, and give the full ranking. Answer format: the labels, in the requested order.
Out: Q, R, P, S

Provenance of the data: ChEMBL document CHEMBL5365395
